# EXPERIMENTAL SYSTEM: AMPK α1β1γ1 (Homo sapiens (Human), UniProt Q13131+Q9Y478)
# Sequence (Q13131 whole entry): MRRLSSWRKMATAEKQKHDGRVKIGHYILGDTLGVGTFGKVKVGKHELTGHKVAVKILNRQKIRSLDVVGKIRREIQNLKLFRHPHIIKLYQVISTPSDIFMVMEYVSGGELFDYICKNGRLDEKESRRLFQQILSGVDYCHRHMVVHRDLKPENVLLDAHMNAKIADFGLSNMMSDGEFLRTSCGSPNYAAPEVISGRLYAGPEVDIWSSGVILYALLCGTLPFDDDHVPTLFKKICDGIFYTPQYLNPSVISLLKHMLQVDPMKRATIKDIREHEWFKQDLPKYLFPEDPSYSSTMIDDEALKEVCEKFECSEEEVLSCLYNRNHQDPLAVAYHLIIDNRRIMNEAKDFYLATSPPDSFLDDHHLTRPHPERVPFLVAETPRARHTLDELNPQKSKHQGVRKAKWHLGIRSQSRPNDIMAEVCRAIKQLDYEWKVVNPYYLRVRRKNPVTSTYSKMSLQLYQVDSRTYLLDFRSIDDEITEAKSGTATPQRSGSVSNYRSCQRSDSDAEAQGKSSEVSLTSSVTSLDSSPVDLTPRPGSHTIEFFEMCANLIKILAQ
# Sequence (Q9Y478 whole entry): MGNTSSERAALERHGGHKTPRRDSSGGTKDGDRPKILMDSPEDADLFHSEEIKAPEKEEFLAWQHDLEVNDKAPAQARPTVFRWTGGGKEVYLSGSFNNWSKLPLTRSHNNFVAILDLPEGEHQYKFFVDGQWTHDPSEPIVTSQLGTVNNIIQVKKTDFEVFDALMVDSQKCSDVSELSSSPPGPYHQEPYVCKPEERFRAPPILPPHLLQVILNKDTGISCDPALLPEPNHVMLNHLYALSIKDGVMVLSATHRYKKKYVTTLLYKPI
# Sequence (P54619 whole entry partner): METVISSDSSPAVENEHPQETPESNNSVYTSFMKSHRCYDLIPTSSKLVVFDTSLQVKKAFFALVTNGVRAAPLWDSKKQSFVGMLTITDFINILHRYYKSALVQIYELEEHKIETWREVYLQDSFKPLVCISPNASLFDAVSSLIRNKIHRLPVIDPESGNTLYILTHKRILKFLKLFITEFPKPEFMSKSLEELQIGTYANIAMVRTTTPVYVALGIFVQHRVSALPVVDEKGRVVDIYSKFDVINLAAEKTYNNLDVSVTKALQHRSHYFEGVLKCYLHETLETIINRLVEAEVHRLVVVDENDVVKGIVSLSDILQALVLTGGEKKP
# EXPERIMENT SUMMARY: in vitro AMPK activation assay (ADP Glo Luminescence Kinase test)
# EXPERIMENTAL PARAMETERS: recombinant human AMPK alpha1/beta1/gamma1; ADP-Glo luminescence read-out
OBSERVED PROPERTY: EC50 (nM)
Please respond with the number in nM and leave the unit unwritten.

Problem: For the molecule shown here, CS(C)(=O)=Nc1c(F)cc(-c2ccc(-c3nc4[nH]c(O[C@@H]5CO[C@H]6[C@@H]5OC[C@H]6O)nc4cc3Cl)cc2)cc1F , give the reported EC50.
Solution: 3560

Problem: Quick check: EC50 of CS(C)(=O)=Nc1ccc(-c2ccc(-c3nc4[nH]c(O[C@@H]5CO[C@H]6[C@@H]5OC[C@H]6O)nc4cc3Cl)cc2)c(F)c1 ?
Solution: 60

Problem: EC50 for CS(C)(=O)=Nc1ccc(-c2ccc(-c3nc4[nH]c(O[C@@H]5CO[C@H]6[C@@H]5OC[C@H]6O)nc4cc3Cl)cc2F)cc1 ?
Solution: 255

====

Assignment: determine reported Emax for the given compounds.
# EXPERIMENTAL SYSTEM: AMPK α1β1γ1 (Homo sapiens (Human), UniProt Q13131+Q9Y478)
# EXPERIMENT SUMMARY: in vitro AMPK activation assay (ADP Glo Luminescence Kinase test)
# Assay type: biochemical
# EXPERIMENTAL PARAMETERS: maximal achievable activation in the tested concentration range, percent of control max (positive control without test substance = 100%); read-out: AMPK α1β1γ1 PoCmax
Report as a plain number; the unit % is understood.

Problem: Bench note: what Emax did CS(C)(=O)=Nc1ccc(-c2cc(F)c(-c3nc4nc(O[C@@H]5CO[C@H]6[C@@H]5OC[C@H]6O)[nH]c4cc3F)c(F)c2)cc1 show?
Solution: 475

Problem: // Emax lookup, key: CS(C)(=O)=Nc1c(F)cc(-c2ccc(-c3nc4[nH]c(O[C@@H]5CO[C@H]6[C@@H]5OC[C@H]6O)nc4cc3Cl)cc2)cc1F
Solution: 421

Problem: Endpoint output: Emax of CS(C)(=O)=Nc1ccc(-c2ccc(-c3nc4[nH]c(O[C@@H]5CO[C@H]6[C@@H]5OC[C@H]6O)nc4cc3Cl)c(F)c2)cc1 . Value?
Solution: 640

Problem: Given CS(C)(=O)=Nc1ccc(-c2ccc(-c3nc4nc(O[C@@H]5CO[C@H]6[C@@H]5OC[C@H]6O)[nH]c4cc3F)cc2)c(F)c1 , state its recorded Emax.
Solution: 484

Problem: Look up Emax: CS(C)(=O)=Nc1ccc(-c2ccc(-c3nc4[nH]c(O[C@@H]5CO[C@H]6[C@@H]5OC[C@H]6O)nc4cc3Cl)cc2)c(F)c1F
Solution: 490

====

# EXPERIMENTAL SYSTEM: AMPK α1β1γ1 (Homo sapiens (Human), UniProt Q13131+Q9Y478)
# EXPERIMENT SUMMARY: in vitro AMPK activation assay (ADP Glo Luminescence Kinase test)
# EXPERIMENTAL PARAMETERS: recombinant human AMPK alpha1/beta1/gamma1; ADP-Glo luminescence read-out
OBSERVED PROPERTY: pEC50
In plain terms, pEC50 is the concentration in mol/L turned into minus its base-10 logarithm.

Problem: Would you mind telling me what pEC50 value was observed for CS(C)(=O)=Nc1ccc(-c2ccc(-c3nc4nc(O[C@@H]5CO[C@H]6[C@@H]5OC[C@H]6O)[nH]c4cc3F)cc2)cc1 [Example 12] ?
Solution: 6.96

Problem: Which pEC50 value belongs to CS(C)(=O)=Nc1cnc(-c2ccc(-c3nc4[nH]c(O[C@@H]5CO[C@H]6[C@@H]5OC[C@H]6O)nc4cc3Cl)cc2)c(F)c1 [Example 10] ?
Solution: 6.71

Problem: // query pEC50 value for entry CS(C)(=O)=Nc1ccc(-c2ccc(-c3nc4nc(O[C@@H]5CO[C@H]6[C@@H]5OC[C@H]6O)[nH]c4cc3F)cc2)c(F)c1 [Example 14]
Solution: 7.17

====

# EXPERIMENTAL SYSTEM: AMPK α1β1γ1 (Homo sapiens (Human), UniProt Q13131+Q9Y478)
# EXPERIMENT SUMMARY: in vitro AMPK activation assay (ADP Glo Luminescence Kinase test)
# Assay type: biochemical
# EXPERIMENTAL PARAMETERS: maximal achievable activation in the tested concentration range, percent of control max (positive control without test substance = 100%); read-out: AMPK α1β1γ1 PoCmax
# Experimental: Recombinant human AMPK (containing subunits alpha1, beta1 and gamma1) was obtained from a baculovirus expression system. […] The activity of the AMPK protein was determined using the ADP Glo® Luminescence Kinase test (Promega; V9103X). In this homogeneous test the amount of ADP formed by the kinase reaction is quantified by a luciferin-luciferase reaction using luminescence as read-out. […] The plates were read with an Envision Luminescence Reader (Perkin-Elmer). […]
OBSERVED PROPERTY: Emax (%)
# output: bare number, implied unit %

Problem: For the molecule CS(C)(=O)=Nc1ccc(-c2cc(F)c(-c3nc4nc(O[C@@H]5CO[C@H]6[C@@H]5OC[C@H]6O)[nH]c4cc3Cl)c(F)c2)cc1 , what Emax is on record?
Solution: 475

Problem: Query: Emax; subject: CS(C)(=O)=Nc1ccc(-c2ccc(-c3nc4[nH]c(O[C@@H]5CO[C@H]6[C@@H]5OC[C@H]6O)nc4cc3Cl)cc2)cc1F
Solution: 540

Problem: Look at this molecule and give its reported Emax. CS(C)(=O)=Nc1cnc(-c2ccc(-c3nc4[nH]c(O[C@@H]5CO[C@H]6[C@@H]5OC[C@H]6O)nc4cc3Cl)cc2)c(F)c1
Solution: 479

Problem: Item CS(C)(=O)=Nc1ccc(-c2ccc(-c3nc4[nH]c(O[C@@H]5CO[C@H]6[C@@H]5OC[C@H]6O)nc4cc3Cl)cc2)c(F)c1 has what recorded Emax?
Solution: 538

Problem: So what's the measured Emax for this one? CS(C)(=O)=Nc1ccc(-c2ccc(-c3nc4nc(O[C@@H]5CO[C@H]6[C@@H]5OC[C@H]6O)[nH]c4cc3F)cc2)cc1
Solution: 608

Problem: For the molecule shown here, CS(C)(=O)=Nc1cc(F)c(-c2ccc(-c3nc4[nH]c(O[C@@H]5CO[C@H]6[C@@H]5OC[C@H]6O)nc4cc3Cl)cc2)c(F)c1 , give the reported Emax.
Solution: 496

====

# EXPERIMENTAL SYSTEM: AMPK α1β1γ1 (Homo sapiens (Human), UniProt Q13131+Q9Y478)
# EXPERIMENT SUMMARY: in vitro AMPK activation assay (ADP Glo Luminescence Kinase test)
# Type: biochemical
# EXPERIMENTAL PARAMETERS: maximal achievable activation in the tested concentration range, percent of control max (positive control without test substance = 100%); read-out: AMPK α1β1γ1 PoCmax
hey, just use rule met if measured Emax is less than 500%, otherwise rule not met

Problem: Below 500% on Emax? Entry CS(C)(=O)=Nc1cc(F)c(-c2ccc(-c3nc4[nH]c(O[C@@H]5CO[C@H]6[C@@H]5OC[C@H]6O)nc4cc3Cl)cc2)cc1F
Solution: rule met

Problem: A record lists COc1nc(-c2ccc(N=S(C)(C)=O)cc2F)ccc1-c1nc2[nH]c(O[C@@H]3CO[C@H]4[C@@H]3OC[C@H]4O)nc2cc1Cl . Is its Emax below 500%?
Solution: rule met

Problem: Is it true that Emax reported for CS(C)(=O)=Nc1ccc(-c2ccc(-c3nc4[nH]c(O[C@@H]5CO[C@H]6[C@@H]5OC[C@H]6O)nc4cc3Cl)c(F)c2F)cc1 is less than 500%?
Solution: rule not met

Problem: A record lists CS(C)(=O)=Nc1ccc(-c2ccc(-c3nc4[nH]c(O[C@@H]5CO[C@H]6[C@@H]5OC[C@H]6O)nc4cc3Cl)cc2F)cc1 . Is its Emax below 500%?
Solution: rule not met

Problem: Lab note: confirm whether the reported Emax for this compound is below 500%, equality not counting. compound: CS(=N)(=O)c1ccc(-c2ccc(-c3nc4[nH]c(O[C@@H]5CO[C@H]6[C@@H]5OC[C@H]6O)nc4cc3Cl)cc2)c(F)c1 (stereo partly drawn)
Solution: rule not met

Problem: Check if Emax falls below 500% for COc1nc(-c2ccc(N=S(C)(C)=O)cc2)ccc1-c1nc2[nH]c(O[C@@H]3CO[C@H]4[C@@H]3OC[C@H]4O)nc2cc1Cl .
Solution: rule met

====

Can you tell me pEC50 for the items I'm about to list?
# EXPERIMENTAL SYSTEM: AMPK α1β1γ1 (Homo sapiens (Human), UniProt Q13131+Q9Y478)
# EXPERIMENT SUMMARY: in vitro AMPK activation assay (ADP Glo Luminescence Kinase test)
# EXPERIMENTAL PARAMETERS: recombinant human AMPK alpha1/beta1/gamma1; ADP-Glo luminescence read-out
Here pEC50 is given on a logarithmic scale as minus log10 of the concentration in mol/L.

Problem: What value of pEC50 has been recorded for this entry: COc1nc(-c2ccc(N=S(C)(C)=O)cc2)ccc1-c1nc2[nH]c(O[C@@H]3CO[C@H]4[C@@H]3OC[C@H]4O)nc2cc1Cl
Solution: 5.92

Problem: What value of measured pEC50 is listed for CS(C)(=O)=Nc1ccc(-c2ccc(-c3nc4[nH]c(O[C@@H]5CO[C@H]6[C@@H]5OC[C@H]6O)nc4cc3Cl)c(F)c2F)cc1 ?
Solution: 6.55

Problem: # query: pEC50 of entry CS(C)(=O)=Nc1cc(F)c(-c2ccc(-c3nc4[nH]c(O[C@@H]5CO[C@H]6[C@@H]5OC[C@H]6O)nc4cc3Cl)cc2)c(F)c1
Solution: 6.94

Problem: Would you kindly share the measured pEC50 for CS(C)(=O)=Nc1ccc(-c2cc(F)c(-c3nc4nc(O[C@@H]5CO[C@H]6[C@@H]5OC[C@H]6O)[nH]c4cc3Cl)c(F)c2)cc1 ?
Solution: 7.08

Problem: What does the record list as pEC50 for CS(C)(=O)=Nc1ccc(-c2cc(F)c(-c3nc4nc(O[C@@H]5CO[C@H]6[C@@H]5OC[C@H]6O)[nH]c4cc3F)c(F)c2)cc1 ?
Solution: 7.13

Problem: Returns the measured pEC50 for the input compound. Input: CS(C)(=O)=Nc1ccc(-c2ccc(-c3nc4[nH]c(O[C@@H]5CO[C@H]6[C@@H]5OC[C@H]6O)nc4cc3Cl)cc2)c(F)c1F
Solution: 6.35

Problem: Field request: pEC50 | item: COc1nc(-c2ccc(N=S(C)(C)=O)cc2F)ccc1-c1nc2[nH]c(O[C@@H]3CO[C@H]4[C@@H]3OC[C@H]4O)nc2cc1Cl
Solution: 6.46

Problem: Need pEC50 of CS(C)(=O)=Nc1ccc(-c2ccc(-c3nc4[nH]c(O[C@@H]5CO[C@H]6[C@@H]5OC[C@H]6O)nc4cc3Cl)cc2)cc1F , thanks.
Solution: 6.55

Problem: Consider the compound CS(C)(=O)=Nc1cc(F)c(-c2ccc(-c3nc4[nH]c(O[C@@H]5CO[C@H]6[C@@H]5OC[C@H]6O)nc4cc3Cl)cc2)cc1F and give its measured pEC50.
Solution: 6.52

Problem: Looking for the measured pEC50 of CS(C)(=O)=Nc1ccc(-c2ccc(-c3nc4[nH]c(O[C@@H]5CO[C@H]6[C@@H]5OC[C@H]6O)nc4cc3Cl)c(F)c2)cc1 , can you help?
Solution: 6.90

Origin of measurements: patent US10053471B2
